Quick reference for pIC50 among some compounds
TARGET: human recombinant Monoacylglycerol Lipase (Homo sapiens, UniProt Q99685)
Sequence (Q99685 whole entry): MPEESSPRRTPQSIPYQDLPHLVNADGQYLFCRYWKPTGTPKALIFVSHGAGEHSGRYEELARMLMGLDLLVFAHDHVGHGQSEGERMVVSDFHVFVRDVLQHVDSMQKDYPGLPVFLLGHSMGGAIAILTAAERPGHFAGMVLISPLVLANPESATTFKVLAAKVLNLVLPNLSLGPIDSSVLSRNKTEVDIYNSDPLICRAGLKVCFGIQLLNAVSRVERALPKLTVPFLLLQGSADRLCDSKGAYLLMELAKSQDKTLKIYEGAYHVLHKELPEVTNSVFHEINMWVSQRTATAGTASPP
ASSAY INFO: MAGL enzymatic assay (IC50; 7-HCA substrate added at T=0 min or T=30 min)
Assay type: biochemical
MEASUREMENT SETUP: substrate 7-HCA added immediately (T=0 min); geometric mean of 2-5 determinations unless otherwise indicated; read-out: MAGL (T = 0 min) IC50
pIC50: −log10 of the molar value.
READOUT KIND: pIC50

> print(dat)
                                   compound  readout.kind  reading
1  O=C(O[C@H](CO)C(F)(F)F)N1CCC2(CC1)CC(n1cc(C(F)(F)F)cn1)C2 [Example 1]         pIC50     7.92
2  O=C(O[C@H](CO)C(F)(F)F)N1CCC2(CC1)CC(c1ccc(C(F)(F)F)cn1)CO2 (single isomer, unassigned) [Example 40]         pIC50     8.05
3  O=C(O[C@H](CO)C(F)(F)F)N1CCC2(CC1)CC(Cn1cc(C(F)(F)F)cn1)CO2 (single isomer, unassigned) [Example 3]         pIC50     7.33
4  O=C(O[C@H](CO)C(F)(F)F)N1CCC2(CC1)CC(c1ccccn1)CO2 (single isomer, unassigned) [Example 41]         pIC50     7.12
5  N#Cc1ccc(C2CC3(CCN(C(=O)O[C@H](CO)C(F)(F)F)CC3)C2)nc1 [Example 84]         pIC50     6.84
6  O=C(O[C@H](CO)C(F)(F)F)N1CCC2(CC1)CC(n1ccc(C(F)(F)F)n1)CO2 (single isomer, unassigned) [Example 53]         pIC50     8.05
7  CN(C(=O)C1CCCC1)[C@H]1COC2(CCN(C(=O)O[C@H](CO)C(F)(F)F)CC2)C1 [Example 5]         pIC50     7.17

###

TARGET: human recombinant Monoacylglycerol Lipase (Homo sapiens, UniProt Q99685)
ASSAY INFO: MAGL enzymatic assay (IC50; 7-HCA substrate added at T=0 min or T=30 min)
Assay type: biochemical
MEASUREMENT SETUP: MAGL (T = 30 min) IC50, substrate 7-HCA added after 30 minute incubation (T=30 min); geometric mean of 2-5 determinations unless otherwise indicated
Quick reference for IC50 among some compounds
READOUT KIND: IC50 (nM)

> print(dat)
                                   compound  readout.kind  reading
1  O=C(O[C@H](CO)C(F)(F)F)N1CCC2(CC1)CC(c1ccc(F)cc1)CO2 (single isomer, unassigned)          IC50        4
2  O=C(O[C@H](CO)C(F)(F)F)N1CCC2(CC1)C[C@H](n1cc(F)cn1)CO2          IC50       49
3  O=C(O[C@H](CO)C(F)(F)F)N1CCC2(CC1)CC(n1cc(C(F)(F)F)cn1)CO2 (single isomer, unassigned) [Example 8]          IC50       16
4  O=C(O[C@H](CO)C(F)(F)F)N1CCC2(CC1)CC(Oc1ccccc1)C2          IC50        1

###

TARGET: human recombinant Monoacylglycerol Lipase (Homo sapiens)
ASSAY INFO: MAGL inactivation (kinact/KI from enzyme progress curves, T=0 min protocol)
MEASUREMENT SETUP: from plot of Kobs vs. compound concentration, geometric mean of 2-5 determinations (b: ≥6)
READOUT KIND: MAGL kinact/KI

> print(dat)
                                    compound           reading
 1  CN(C(=O)Cc1ccccc1)C1CC2(CCN(C(=O)O[C@H](CO)C(F)(F)F)CC2)C1 [Example 44]   13800 1/s per M
 2  O=C(O[C@H](CO)C(F)(F)F)N1CCC2(CC1)CC(n1cc(F)cn1)C2 [Example 64]    6260 1/s per M
 3  CN(C1CC2(CCN(C(=O)O[C@H](CO)C(F)(F)F)CC2)C1)S(=O)(=O)c1ccccc1 [Example 45]   63200 1/s per M
 4  O=C(O[C@H](CO)C(F)(F)F)N1CCC2(CC1)CC(c1cccc(C(F)F)n1)C2 [Example 77]   82100 1/s per M
 5  CN(C(=O)C1CC1)C1CC2(CCN(C(=O)O[C@H](CO)C(F)(F)F)CC2)C1 [Example 55]   15700 1/s per M
 6  O=C(O[C@H](CO)C(F)(F)F)N1CCC2(CC1)CC(c1ccccc1F)CO2 (single isomer, unassigned) [Example 25]   25500 1/s per M
 7  O=C(O[C@H](CO)C(F)(F)F)N1CCC2(CCC(n3cc(F)cn3)CO2)CC1 (single isomer, unassigned) [Example 70]   40400 1/s per M
 8  O=C(O[C@H](CO)C(F)(F)F)N1CCC2(CCC(n3cc(C(F)F)cn3)CO2)CC1 (single isomer, unassigned) [Example 75]    7370 1/s per M
 9  O=C(O[C@H](CO)C(F)(F)F)N1CCC2(CCC(c3ccc(F)cn3)CO2)CC1 (single isomer, unassigned) [Example 74]    7140 1/s per M
10  CN(C(=O)C1CCCC1)[C@H]1COC2(CCN(C(=O)O[C@H](CO)C(F)(F)F)CC2)C1 [Example 5]    5530 1/s per M
11  O=C(O[C@H](CO)C(F)(F)F)N1CCC2(CC1)CC(Oc1cccc(F)c1)C2 [Example 51]  128000 1/s per M
12  O=C(O[C@H](CO)C(F)(F)F)N1CCC2(CC1)CC(n1cc(C(F)(F)F)cn1)C2 [Example 1]   22200 1/s per M
13  O=C(O[C@H](CO)C(F)(F)F)N1CCC2(CC1)CC(c1ccc(C(F)(F)F)nc1)C2 [Example 67]   60600 1/s per M
14  O=C(O[C@H](CO)C(F)(F)F)N1CCC2(CC1)CC(c1ccnc(C(F)F)c1)C2 [Example 80]   46200 1/s per M
15  O=C(O[C@H](CO)C(F)(F)F)N1CCC2(CC1)CC(c1ccc(F)cc1F)CO2 (single isomer, unassigned) [Example 33]   53400 1/s per M
